Where do the numbers come from? From patent US10343991B2.

Each item that follows carries a reported viability at 10 µM.
- System: THP1 cells
- PROTOCOL_DETAILS: Trypan blue assay, cell viability
- Assay type: cell-based
- CONDITION_CONTEXT: Homo sapiens, THP-1, 48 h, average of three experiments
Don't forget the unit after the value.

Recorded viability at 10 µM, per entry:
[[record]]
compound = "O=C1Cc2cc3c(-c4ccccc4)c(Cc4ccccc4)oc3cc2N1"
system = "THP1 cells"
result_type = "viability at 10 µM"
result = "53.6%"

[[record]]
compound = "COc1cccc(C(C#CCOCc2ccccc2)c2cc3c(cc2O)NC(=O)C3)c1OC (stereo not shown)"
system = "THP1 cells"
result_type = "viability at 10 µM"
result = "48.5%"

[[record]]
compound = "COc1cccc(C(C#CCOCc2ccccc2)c2cc3c(cc2O)NC(=O)/C3=C\\c2[nH]c(C)cc2C)c1OC (stereo not shown)"
system = "THP1 cells"
result_type = "viability at 10 µM"
result = "30.2%"

[[record]]
compound = "Cc1ccc(S(=O)(=O)n2cc(C(C#Cc3ccccc3)c3cc4c(cc3O)NC(=O)/C4=C\\c3[nH]c(C)cc3C)c3ccccc32)cc1 (stereo not shown)"
system = "THP1 cells"
result_type = "viability at 10 µM"
result = "104%"

[[record]]
compound = "Cc1cc(C)c(/C=C2\\C(=O)Nc3cc(O)c(C(C#Cc4ccccc4)c4ccccc4)cc32)[nH]1 (stereo not shown)"
system = "THP1 cells"
result_type = "viability at 10 µM"
result = "125%"

[[record]]
compound = "CCN(CC)CCNC(=O)c1c(C)[nH]c(/C=C2\\C(=O)Nc3ccc(F)cc32)c1C [SUNT, Sunitinib, reference compound]"
system = "THP1 cells"
result_type = "viability at 10 µM"
result = "35.2%"


Req: Kindly state the measured viability at 10 µM obtained for CN(C)c1ccc(/C=C2\C(=O)Nc3cc(O)c(C(C#Cc4ccccc4)c4ccccc4)cc32)c2ccccc12 (stereo not shown) with THP1 cells.
Resp: 125%

Req: Kindly state the measured viability at 10 µM obtained for CN(C)c1ccc(/C=C2\C(=O)Nc3cc4oc(Cc5ccccc5)c(-c5ccccc5)c4cc32)c2ccccc12 with THP1 cells.
Resp: 83.3%

Req: Kindly state the measured viability at 10 µM obtained for Cc1cc(C)c(/C=C2\C(=O)Nc3cc4oc(Cc5ccccc5)c(-c5ccccc5)c4cc32)[nH]1 with THP1 cells.
Resp: 36.2%

Req: Kindly state the measured viability at 10 µM obtained for COc1cccc(-c2c(CCOCc3ccccc3)oc3cc4c(cc23)CC(=O)N4)c1OC with THP1 cells.
Resp: 75.5%

Req: Kindly state the measured viability at 10 µM obtained for Cc1ccsc1/C=C1\C(=O)Nc2cc3oc(Cc4ccccc4)c(-c4ccccc4)c3cc21 with THP1 cells.
Resp: 41.2%

Req: Kindly state the measured viability at 10 µM obtained for Cc1ccc(S(=O)(=O)n2cc(-c3c(Cc4ccccc4)oc4cc5c(cc34)/C(=C/c3[nH]c(C)cc3C)C(=O)N5)c3ccccc32)cc1 with THP1 cells.
Resp: 68.2%

Req: Kindly state the measured viability at 10 µM obtained for COc1cccc(-c2c(COCc3ccccc3)oc3cc4c(cc23)/C(=C/c2[nH]c(C)cc2C)C(=O)N4)c1OC with THP1 cells.
Resp: 80.5%

Req: Kindly state the measured viability at 10 µM obtained for COc1cccc(-c2c(COCc3ccccc3)oc3cc4c(cc23)/C(=C/c2sccc2C)C(=O)N4)c1OC with THP1 cells.
Resp: 106%

Req: Kindly state the measured viability at 10 µM obtained for Cc1ccsc1/C=C1\C(=O)Nc2cc(O)c(C(C#Cc3ccccc3)c3ccccc3)cc21 (stereo not shown) with THP1 cells.
Resp: 33.3%

Req: Kindly state the measured viability at 10 µM obtained for O=C1Cc2cc(C(C#Cc3ccccc3)c3ccccc3)c(O)cc2N1 (stereo not shown) with THP1 cells.
Resp: 34.5%
